The compounds listed here are annotated with their IC50.
target_system: GRK6, recombinant full-length GST-tagged human protein (Homo sapiens (Human), UniProt P43250)
Sequence (P43250 whole entry): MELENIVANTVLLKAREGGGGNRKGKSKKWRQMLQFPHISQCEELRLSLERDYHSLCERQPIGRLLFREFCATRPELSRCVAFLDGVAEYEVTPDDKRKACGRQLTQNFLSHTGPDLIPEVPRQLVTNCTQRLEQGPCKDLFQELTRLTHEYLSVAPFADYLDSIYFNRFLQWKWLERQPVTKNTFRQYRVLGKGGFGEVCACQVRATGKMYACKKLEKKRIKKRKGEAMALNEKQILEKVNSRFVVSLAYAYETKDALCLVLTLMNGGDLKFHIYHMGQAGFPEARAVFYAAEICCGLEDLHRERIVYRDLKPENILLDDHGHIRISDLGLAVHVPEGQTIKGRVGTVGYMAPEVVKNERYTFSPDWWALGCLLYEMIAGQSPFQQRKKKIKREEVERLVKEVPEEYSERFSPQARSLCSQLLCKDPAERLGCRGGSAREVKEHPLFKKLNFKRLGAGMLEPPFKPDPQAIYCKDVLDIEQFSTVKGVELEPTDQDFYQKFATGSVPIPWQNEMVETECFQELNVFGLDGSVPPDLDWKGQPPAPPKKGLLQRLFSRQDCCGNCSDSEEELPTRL
assay_summary: GRK6 LabChip microfluidic mobility shift kinase assay
Format: biochemical
setup_conditions: 8-point concentration-response, top concentration 60 μM, ATP 12 μM (Km)

IN: I'd like to know its IC50. The compound in question is N#CC1=C(N)Oc2cc(N)ccc2C1c1cccs1 (stereo not shown)
OUT: 11.8 µM

IN: So what does the record say about IC50 for Cc1nc2ccccn2c1-c1csc(Nc2ccc(N)cc2)n1 ?
OUT: > 60 µM

IN: GET /values?readout=IC50&item= Cc1cc2c(C(C)C)c(O)c(O)c(/C=N/CCCN3CCOCC3)c2c(O)c1-c1c(C)cc2c(C(C)C)c(O)c(O)c(/C=N/CCCN3CCOCC3)c2c1O
OUT: 10.1 µM

IN: What does the record list as IC50 for CCCCn1c(N)c(C#N)c2nc3ccccc3nc21 ?
OUT: 1.56 µM

IN: Entry CCNC(=S)N(CCO)Cc1cc2cc3c(cc2[nH]c1=O)OCO3 has what IC50?
OUT: > 60 µM

Further cases:
IN: Could you share which IC50 value was measured for Oc1ccc(-c2nnc(NCCc3ccccc3)s2)cc1 ?
OUT: > 60 µM

IN: I would be grateful if you could share the reported IC50 for C=CCn1c(N)c(C(=O)OC)c2nc3ccccc3nc21 .
OUT: 0.973 µM

IN: May I ask what IC50 has been recorded for CN(C)c1ccc(O)c2c1CC1CC3[C@H](N(C)C)C(O)=C(C(N)=O)C(=O)[C@@]3(O)C(O)=C1C2=O (stereo partly shown) ?
OUT: 1.37 µM

====

# key: entry, value: IC50
target_system: GRK6, recombinant full-length GST-tagged human protein (Homo sapiens (Human), UniProt P43250)
assay_summary: GRK6 LabChip microfluidic mobility shift kinase assay
Type: biochemical
setup_conditions: GRK6 polypeptide inhibition assay, class symbols

IN: For Cc1ccc(-c2ccccc2NS(=O)(=O)c2ccc(S(=O)(=O)N3CCCCCC3)cc2)o1 , what is its reported IC50?
OUT: > 20 µM

Moving on to another compound below.
IN: Look at this compound and give its reported IC50. Cc1ccc([N+](=O)[O-])c(NC2OC(CO)C(O)C2O)c1 (centres unmarked)
OUT: 10.1 to 20 µM

====

The following compounds are shown together with reported pIC50 values.
target_system: GRK6, recombinant full-length GST-tagged human protein (Homo sapiens (Human))
assay_summary: GRK6 LabChip microfluidic mobility shift kinase assay
Assay type: biochemical
setup_conditions: 8-point concentration-response, top concentration 60 μM, ATP 12 μM (Km)
Reminder that pIC50 is minus the log10 of a molar concentration.

Example entries and their recorded answers appear below.
IN: Data request, read-out pIC50, for Oc1c(C(Nc2ccccn2)c2cccnc2)ccc2cccnc12 (stereo not drawn)
OUT: 5.17

IN: What value of pIC50 has been reported for the following compound? NC(=O)c1cc(N)c2c(c1N)C(=O)c1ccccc1C2=O
OUT: 4.90

IN: Can you share its pIC50? I mean this compound: CCOc1ccc(NC(c2ccccn2)c2ccc3cccnc3c2O)cc1 (stereo not drawn)
OUT: 5.35

Now turn to the next compound.
IN: Field request: pIC50 | item: Cc1ccc(C2C(C#N)=C(N)Oc3cc(N)ccc32)cc1 (stereo not drawn)
OUT: 4.59

====

target_system: GRK6, recombinant full-length GST-tagged human protein (Homo sapiens (Human), UniProt P43250)
assay_summary: GRK6 LabChip microfluidic mobility shift kinase assay
Type: biochemical
setup_conditions: 8-point concentration-response, top concentration 60 μM, ATP 12 μM (Km)
reported_endpoint: log10 IC50 (log10 of the value in µM)
In our notation, the value equals log10 of IC50 in µM.

IN: Report log10 IC50 for O=C(O)CSc1nnc(-c2cccs2)[nH]1 please.
OUT: 0.66

Further cases:
IN: Entry under review: O=C(O)c1ccc([C@@H]2Nc3ccc(I)cc3[C@@H]3C=CC[C@@H]32)cc1 . Reported log10 IC50?
OUT: 0.82

IN: Requested read-out: log10 IC50. Entry: CCOc1cccc(=O)c2c(C)[nH]c(C)c12
OUT: 0.41

IN: So what's the measured log10 IC50 for this one? Cc1cccc(-c2nnc(SCC(=O)O)[nH]2)c1
OUT: 0.16

====

target_system: GRK6, recombinant full-length GST-tagged human protein (Homo sapiens (Human))
assay_summary: GRK6 LabChip microfluidic mobility shift kinase assay
Type: biochemical
setup_conditions: 8-point concentration-response, top concentration 60 μM, ATP 12 μM (Km)
In this section we review reported log10 of IC50 values for a set of compounds.
Log10 applied to IC50; unit prior to transform: µM.

Study these solved cases before continuing.
IN: Endpoint output: log10 of IC50 of COc1cc(/C=C2/SC(=S)N(c3cccnc3)C2=O)ccc1O . Value?
OUT: 1.61

IN: For the compound CCOC(=O)c1c(N)n(C2CC2)c2nc3ccccc3nc12 , what log10 of IC50 is on record?
OUT: 0.45

More entries:
IN: Would you kindly share the measured log10 of IC50 for Cc1cccc(NC2=NC(=O)/C(=C/c3ccc(O)c(O)c3)S2)c1C ?
OUT: 0.85

IN: Returns the measured log10 of IC50 for the input compound. Input: Nc1ccc2c3c1C(=O)OC3(O)c1ccccc1C2=O (centres unmarked)
OUT: 1.67

IN: log10 of IC50 for O=C(O)CSc1nnc(-c2ccc(OC(F)(F)F)cc2)[nH]1 ?
OUT: 0.77

IN: # lookup: log10 of IC50 of Nc1ccc(CCc2nc3cc(N)ccc3o2)cc1
OUT: 1.25

IN: Which log10 of IC50 is reported for this compound? Cc1cc2c(c(O)c1-c1c(C)cc3c(c1O)/C(=C/NCCCN1CCOCC1)C(=O)C(O)=C3C(C)C)/C(=C/NCCCN1CCOCC1)C(=O)C(O)=C2C(C)C
OUT: 1.23

IN: Bench note: what log10 of IC50 did O=c1cc(-c2ccccc2)oc2cc(O)c(O)c(O)c12 show?
OUT: 0.94

IN: # get_value(readout='log10 of IC50', item= CCOc1cccc(=O)c2c(C)n(-c3ccc(C)cc3)c(C)c12 )
OUT: 0.53

IN: Suppose we examine the compound O=[N+]([O-])c1cc(C2=NN=C(NCc3ccco3)SC2)ccc1Cl ; what log10 of IC50 value has been reported?
OUT: 0.82

====

# pIC50 values compiled below
target_system: GRK6, recombinant full-length GST-tagged human protein (Homo sapiens (Human))
assay_summary: GRK6 LabChip microfluidic mobility shift kinase assay
Type: biochemical
setup_conditions: 8-point concentration-response, top concentration 60 μM, ATP 12 μM (Km)
Description: […] All determinations were performed in duplicates. To obtain the IC50 values and the Hill coefficient, the 4-parameter logistic equation was fitted to the data by non-linear regression using XLFit software.
Quick note: pIC50 values are minus log10 of concentrations in mol/L.

Consider the worked cases shown below.
IN: What pIC50 value was documented for this compound, CCN(CC)c1ccc(C2Nc3cccc4cccc(c34)N2)c(O)c1 ?
OUT: 5.07

IN: State the recorded pIC50 for this entry: Cc1cc(NC(c2ccccn2)c2ccc3cccnc3c2O)no1 (stereo not shown)
OUT: 5.19

IN: Quick check: pIC50 of C1=Nc2cccc3cccc(c23)N1 ?
OUT: 4.90

IN: State the recorded pIC50 for this entry: CCN(CC)CCn1c2ccccc2c2cnc(N)c(C#N)c21
OUT: 4.73

IN: Which measured pIC50 value corresponds to CCOc1cc(-c2ccc(O)c(O)c2)cc(=O)c2c(C)oc(C)c12 ?
OUT: 5.36

More entries:
IN: Which pIC50 value is on record for N#CC1=C(N)Oc2cc(N)ccc2C1c1cc2cc3c(cc2nc1Cl)OCO3 (stereo not shown) ?
OUT: 5.19

IN: Find the recorded pIC50 belonging to Oc1ccc(-c2nc3ccc4ccccc4c3c3c2CCC3)cc1O and report it.
OUT: 4.55

IN: Look up pIC50 for this compound: c1ccc(-c2ccc(C3=NN=C(NCc4ccco4)SC3)cc2)cc1
OUT: 4.98

IN: What value of pIC50 has been recorded for this entry: Cc1ccc([N+](=O)[O-])c(NC2OC(CO)C(O)C2O)c1 (stereo not shown)
OUT: 4.92

IN: # get_value(readout='pIC50', item= COc1ccc(-c2cc(=O)oc3c(O)c(O)ccc23)cc1 )
OUT: 5.15

====

target_system: GRK6, recombinant full-length GST-tagged human protein (Homo sapiens (Human), UniProt P43250)
assay_summary: GRK6 LabChip microfluidic mobility shift kinase assay
Assay type: biochemical
setup_conditions: 8-point concentration-response, top concentration 60 μM, ATP 12 μM (Km)
reported_endpoint: IC50

# annotated cases, reported IC50 shown
IN: Field request: IC50 | item: CC(=O)Nc1ccc(Nc2nnc(-c3ccc(O)cc3)c3ccccc23)cc1
OUT: > 60 µM

IN: Item Cc1ccc2nc(NC=O)sc2c1 has what recorded IC50?
OUT: > 60 µM

Continuing:
IN: // IC50 lookup, key: COCCNC(=O)CN(C(=O)c1snc(C(N)=O)c1N)c1ccccc1
OUT: > 60 µM
